- Tested on: human IBAT (Homo sapiens, UniProt Q12908)
- Sequence (Q12908 whole entry): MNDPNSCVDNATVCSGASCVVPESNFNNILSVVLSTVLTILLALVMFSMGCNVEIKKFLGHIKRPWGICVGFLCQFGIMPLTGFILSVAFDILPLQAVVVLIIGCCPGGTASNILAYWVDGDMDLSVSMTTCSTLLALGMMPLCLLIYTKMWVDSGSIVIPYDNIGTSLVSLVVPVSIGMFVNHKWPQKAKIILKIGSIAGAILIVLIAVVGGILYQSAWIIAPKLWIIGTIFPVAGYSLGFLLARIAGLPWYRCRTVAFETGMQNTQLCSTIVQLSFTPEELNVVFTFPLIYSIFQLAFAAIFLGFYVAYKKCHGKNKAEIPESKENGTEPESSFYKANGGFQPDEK
- Test name: In vitro assay of compounds that inhibit IBAT-mediated uptake of [14C]-taurocholate (TC) in H14 cells
- Experimental parameters: Table 8, 1, 4 and 1, 5 benzothiazipines
Readout: pIC50
Note: pIC50 values are expressed as the negative base-10 logarithm of concentration in M.

Measured pIC50, CCCCC1(CCCC)CS(=O)(=O)c2ccc(N(C)C)cc2[C@@H](c2ccc(OC)cc2)N1 (racemic) [Compound 2] : 6.30
